Ref: patent US20240132492A1

# target-or-system: AKT1 (Homo sapiens, UniProt P31749)
# Construct: AKT1, AKT2, and AKT3 proteins in H1975-OR cells; endogenous in cells; host or cells: H1975-OR (osimertinib-resistant H1975)
# Sequence (P31749 whole entry): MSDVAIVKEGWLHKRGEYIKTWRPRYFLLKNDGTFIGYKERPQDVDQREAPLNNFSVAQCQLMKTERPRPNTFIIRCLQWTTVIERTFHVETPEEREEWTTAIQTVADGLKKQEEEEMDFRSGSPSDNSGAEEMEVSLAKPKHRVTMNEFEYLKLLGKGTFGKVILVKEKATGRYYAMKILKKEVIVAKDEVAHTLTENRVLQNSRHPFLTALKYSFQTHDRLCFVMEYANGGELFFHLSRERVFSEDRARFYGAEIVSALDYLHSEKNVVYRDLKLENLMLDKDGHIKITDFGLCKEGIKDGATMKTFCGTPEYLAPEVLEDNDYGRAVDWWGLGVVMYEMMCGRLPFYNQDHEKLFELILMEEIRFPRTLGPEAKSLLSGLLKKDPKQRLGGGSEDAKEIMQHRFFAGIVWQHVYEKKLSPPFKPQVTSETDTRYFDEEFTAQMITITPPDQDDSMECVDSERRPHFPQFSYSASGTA
# assay-comment: Western Blot, degradation of AKT1 protein in H1975-OR cells
# Assay type: cell-based
# condition-notes: 1000 nM, 24 hours, maximum degradation rate
assay-readout: Dmax at 1 µM (%)
State the answer as a number, implicitly in %.

Below are worked cases with known answers.
# mol, target-or-system, units-of-measure, measured-result
data = [
    ("COc1cc(N2CCN(CCCCCCCCCCCCNC(=O)CC34CC5CC(CC(C5)C3)C4)CC2)ccc1Nc1ncc2c(C)cc(=O)n([C@H]3CCN(C(=O)C4CC4)C3)c2n1", "AKT1 (Homo sapiens, UniProt P31749)", "%", 0),
    ("COc1cc(N2CCN(CCCCCCCCCCCCNC(=O)CC34CC5CC(CC(C5)C3)C4)CC2)ccc1Nc1ncc2c(C)cc(=O)n(-c3cccc(NC(C)=O)c3)c2n1", "AKT1 (Homo sapiens, UniProt P31749)", "%", 0),
    ("COc1cc(N2CCN(CCCCCCCCCCCCNC(=O)CC34CC5CC(CC(C5)C3)C4)CC2)ccc1Nc1ncc2c(C)cc(=O)n(-c3cccc(N)c3)c2n1", "AKT1 (Homo sapiens, UniProt P31749)", "%", 46.4),
    ("COc1cc(N2CCN(CCCCCCCCNC(=O)[C@@]34CC5C[C@@](C)(C[C@@](C)(C5)C3)C4)CC2)ccc1Nc1ncc2c(C)cc(=O)n(-c3cccc(NC(=O)C4CC4)c3)c2n1", "AKT1 (Homo sapiens, UniProt P31749)", "%", 0),
]

Now for a further compound.
The compound `C=CC(=O)Nc1cccc(-n2c(=O)cc(C)c3cnc(Nc4ccc(N5CCN(CCCCCCNC(=O)CC67CC8CC(CC(C8)C6)C7)CC5)cc4OC)nc32)c1` showed Dmax at 1 µM equal to 0

* * *

Recorded IC50, one value per entry.
# Tested on: MIAPACA-2
# assay-comment: CCK-8 tumor cell proliferation, MIAPACA-2
# Format: cell-based
# condition-notes: Homo sapiens, MIA PaCa-2, MIAPACA-2 cells, 72 hours
# Description: Tumor cells (see Table 2 to Table 5) were inoculated in 96-well plates in complete culture medium (2000-3000 cells/well). After overnight incubation, the compounds with different concentrations (0.000508 μM-10 μM) were used to treat the cells separately for 72 hours. CCK-8 (Cell Counting Kit 8, Dojindo Laboratories, Kumamoto, Japan) experiment was used to evaluate cell proliferation. […]
State the answer as a number, implicitly in µM.

Below are worked cases with known answers.
# molecule, IC50 / µM
measured = [
    ("COc1cc(N2CCN(C(=O)CC34CC5CC(CC(C5)C3)C4)CC2)ccc1Nc1ncc2c(C)cc(=O)n(-c3cccc(NC(=O)C4CC4)c3)c2n1 [ZX-HYT-50]", 0.00864),
    ("COc1cc(N2CCN(CCNC(=O)CC34CC5CC(CC(C5)C3)C4)CC2)ccc1Nc1ncc2c(C)cc(=O)n(-c3cccc(NC(=O)C4CC4)c3)c2n1 [ZX-HYT-51]", 0.0513),
    ("COc1cc(N2CCN(C(=O)C34CC5CC(CC(C5)C3)C4)CC2)ccc1Nc1ncc2c(C)cc(=O)n(-c3cccc(NC(=O)C4CC4)c3)c2n1 [ZX-HYT-65]", 0.0511),
]

Now for a further molecule.
The molecule COc1cc(N2CCN(CCCCNC(=O)CC34CC5CC(CC(C5)C3)C4)CC2)ccc1Nc1ncc2c(C)cc(=O)n(-c3cccc(NC(=O)C4CC4)c3)c2n1 [ZX-HYT-52] showed IC50 equal to 0.0721
